Each entry below lists one item and its recorded pIC50 value.
EXPERIMENTAL_TARGET: PCP receptor
METHOD_SUMMARY: PCP receptor binding against 3H-MK-801 (Example 5, Table 1)
CONDITION_SET: vs. 3H-MK-801; ± sem (n)
pIC50 field: float, defined as -log10 of concentration (mol/L).

Completed entries (count: 3):
COMPOUND: c1ccc2c(c1)CC1NCC2c2ccccc21 (racemic) [(±)-IDDC]
pIC50: 7.39

COMPOUND: CC12CNC(Cc3ccccc31)c1ccccc12 (racemic) [(±)-5-Me-IDDC]
pIC50: 6.90

COMPOUND: c1ccc2c(c1)C[C@H]1NC[C@@H]2c2ccccc21 [(+)-IDDC]
pIC50: 7.40

Now consider a different compound.
Give recorded pIC50. CN1C[C@H]2c3ccccc3C[C@@H]1c1ccccc12 [(+)-N--Me-IDDC]
6.10

These entries and their values trace back to patent US5688789A.
